- System: 156681-154-R-J1 tumor spheroid viability
- run description: Anticancer human tumor 156681-154-R-J1 patient-derived melanoma cell line growth inhibition
- details: second compound 94.9 pM; first compound 1 µM; stronger effect = lower value; spheroids with HUVEC and MSC
reported metric: viability, T/C

Return reported viability, T/C. Input molecule: COc1cc(C)[nH]c(=O)c1CN1CCc2c(Cl)cc(C(OC)C3COC3)c(Cl)c2C1=O (stereo unspecified) + COc1cc2c(cc1O)CCNC21CSC2c3c(OC(C)=O)c(C)c4c(c3C(COC1=O)N1C(O)C3Cc5cc(C)c(OC)c(O)c5C(C21)N3C)OCO4
116%

Return reported viability, T/C. Input molecule: [2H]c1nc(C)nc([2H])c1-c1cc(NC[C@@H](C)c2cccc3c(C(=O)NC)ccnc23)ncn1 + COc1cc2c(cc1O)CCNC21CSC2c3c(OC(C)=O)c(C)c4c(c3C(COC1=O)N1C(O)C3Cc5cc(C)c(OC)c(O)c5C(C21)N3C)OCO4
85%

Return reported viability, T/C. Input molecule: CC1COCCN1c1cc(-c2ccnn2C)c2ccnc(-c3ccn[nH]3)c2n1 (stereo unspecified) + COc1cc2c(cc1O)CCNC21CSC2c3c(OC(C)=O)c(C)c4c(c3C(COC1=O)N1C(O)C3Cc5cc(C)c(OC)c(O)c5C(C21)N3C)OCO4
30%

Return reported viability, T/C. Input molecule: COc1ccc([C@@H](O)c2cc(-c3ncnc4cc(N5CCOCC5)ccc34)c(F)cc2Cl)nn1 + COc1cc2c(cc1O)CCNC21CSC2c3c(OC(C)=O)c(C)c4c(c3C(COC1=O)N1C(O)C3Cc5cc(C)c(OC)c(O)c5C(C21)N3C)OCO4
69.5%

Return reported viability, T/C. Input molecule: Cc1cc(C)c(CNC(=O)c2cc(-c3ccc(CN4CCOCC4)cc3)cc3c2cnn3C2CCCC2)c(=O)[nH]1 + COc1cc2c(cc1O)CCNC21CSC2c3c(OC(C)=O)c(C)c4c(c3C(COC1=O)N1C(O)C3Cc5cc(C)c(OC)c(O)c5C(C21)N3C)OCO4
77.6%

Return reported viability, T/C. Input molecule: CC(C)n1c(=O)n(C)c2cnc3cc(F)c(-c4ccc(OCCCN5CCCCC5)nc4)cc3c21 + COc1cc2c(cc1O)CCNC21CSC2c3c(OC(C)=O)c(C)c4c(c3C(COC1=O)N1C(O)C3Cc5cc(C)c(OC)c(O)c5C(C21)N3C)OCO4
95%

====

- System: 156681-154-R-J1 tumor spheroid viability
- run description: Anticancer human tumor 156681-154-R-J1 cell line growth inhibition;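 also: spheroids exposed to compounds for 7 days before readout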;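 as to viability, T/C: percent of vehicle control viability where 100% = DMSO-treated spheroids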
- details: second compound 0.003 µM; first compound 0.1 µM; stronger effect = lower value; spheroids with HUVEC and MSC
reported metric: viability, T/C (%)
Please respond with the number in % and leave the unit unwritten.

Return reported viability, T/C. Input compound: CC1COCCN1c1cc(-c2ccnn2C)c2ccnc(-c3ccn[nH]3)c2n1 (configuration not stated) + CC[C@@]1(O)C(=O)OCc2c1cc1n(c2=O)Cc2cc3c(CN(C)C)c(O)ccc3nc2-1
62.5

Return reported viability, T/C. Input compound: COc1cc(C)[nH]c(=O)c1CN1CCc2c(Cl)cc(C(OC)C3COC3)c(Cl)c2C1=O (configuration not stated) + COc1cc2c(cc1O)CCNC21CSC2c3c(OC(C)=O)c(C)c4c(c3C(COC1=O)N1C(O)C3Cc5cc(C)c(OC)c(O)c5C(C21)N3C)OCO4
0.34

Return reported viability, T/C. Input compound: COc1cc(C)[nH]c(=O)c1CN1CCc2c(Cl)cc(C(OC)C3COC3)c(Cl)c2C1=O (configuration not stated) + CC[C@@]1(O)C(=O)OCc2c1cc1n(c2=O)Cc2cc3c(CN(C)C)c(O)ccc3nc2-1
93.3

Return reported viability, T/C. Input compound: Cc1cc(C)c(CNC(=O)c2cc(-c3ccc(CN4CCOCC4)cc3)cc3c2cnn3C2CCCC2)c(=O)[nH]1 + CC[C@@]1(O)C(=O)OCc2c1cc1n(c2=O)Cc2cc3c(CN(C)C)c(O)ccc3nc2-1
111

Return reported viability, T/C. Input compound: CC1COCCN1c1cc(-c2ccnn2C)c2ccnc(-c3ccn[nH]3)c2n1 (configuration not stated) + COc1cc2c(cc1O)CCNC21CSC2c3c(OC(C)=O)c(C)c4c(c3C(COC1=O)N1C(O)C3Cc5cc(C)c(OC)c(O)c5C(C21)N3C)OCO4
0.22

Return reported viability, T/C. Input compound: CC(C)n1c(=O)n(C)c2cnc3cc(F)c(-c4ccc(OCCCN5CCCCC5)nc4)cc3c21 + CC[C@@]1(O)C(=O)OCc2c1cc1n(c2=O)Cc2cc3c(CN(C)C)c(O)ccc3nc2-1
92.7

Return reported viability, T/C. Input compound: CC(C)n1c(=O)n(C)c2cnc3cc(F)c(-c4ccc(OCCCN5CCCCC5)nc4)cc3c21 + COc1cc2c(cc1O)CCNC21CSC2c3c(OC(C)=O)c(C)c4c(c3C(COC1=O)N1C(O)C3Cc5cc(C)c(OC)c(O)c5C(C21)N3C)OCO4
0.23

====

- System: 156681-154-R-J1 tumor spheroid viability
- run description: Anticancer human tumor 156681-154-R-J1 cell line growth inhibition;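 also: spheroids exposed to compounds for 7 days before readout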
- details: curve of first compound; second compound 100 µM; spheroids with HUVEC and MSC
pIC50: −log10 of the molar value.
reported metric: pIC50

Return reported pIC50. Input molecule: CNCc1ccc(-c2cc(-c3nc(-c4ccc(S(=O)(=O)C(C)C)cc4)cnc3N)on2)cc1 + Cn1nnc2c(C(N)=O)ncn2c1=O
7.09

Return reported pIC50. Input molecule: COc1cc(C)[nH]c(=O)c1CN1CCc2c(Cl)cc(C(OC)C3COC3)c(Cl)c2C1=O (stereo not given) + Cn1nnc2c(C(N)=O)ncn2c1=O
< 5.00

Return reported pIC50. Input molecule: CC(C)n1c(=O)n(C)c2cnc3cc(F)c(-c4ccc(OCCCN5CCCCC5)nc4)cc3c21 + Cn1nnc2c(C(N)=O)ncn2c1=O
> 7.50

Return reported pIC50. Input molecule: [2H]c1nc(C)nc([2H])c1-c1cc(NC[C@@H](C)c2cccc3c(C(=O)NC)ccnc23)ncn1 + Cn1nnc2c(C(N)=O)ncn2c1=O
5.61

Return reported pIC50. Input molecule: Cc1sc2c(c1C)C(c1ccc(Cl)cc1)=NC(CC(=O)Nc1ccc(O)cc1)c1nnc(C)n1-2 (stereo not given) + Cn1nnc2c(C(N)=O)ncn2c1=O
7.83

Return reported pIC50. Input molecule: CC1COCCN1c1cc(-c2ccnn2C)c2ccnc(-c3ccn[nH]3)c2n1 (stereo not given) + Cn1nnc2c(C(N)=O)ncn2c1=O
> 7.50

Return reported pIC50. Input molecule: O=C(c1cc(Cc2n[nH]c(=O)c3ccccc23)ccc1F)N1CCN(C(=O)C2CC2)CC1 + Cn1nnc2c(C(N)=O)ncn2c1=O
> 7.02

Return reported pIC50. Input molecule: Cc1cc(C)c(CNC(=O)c2cc(-c3ccc(CN4CCOCC4)cc3)cc3c2cnn3C2CCCC2)c(=O)[nH]1 + Cn1nnc2c(C(N)=O)ncn2c1=O
< 5.00

Return reported pIC50. Input molecule: Cn1ncnc1[C@H]1c2n[nH]c(=O)c3cc(F)cc(c23)N[C@@H]1c1ccc(F)cc1 + Cn1nnc2c(C(N)=O)ncn2c1=O
> 8.02

Return reported pIC50. Input molecule: COc1ccc([C@@H](O)c2cc(-c3ncnc4cc(N5CCOCC5)ccc34)c(F)cc2Cl)nn1 + Cn1nnc2c(C(N)=O)ncn2c1=O
< 5.00

====

- Tested on: 156681-154-R-J1 tumor spheroid viability
- run description: Anticancer human tumor 156681-154-R-J1 cell line growth inhibition; active means viability on the fitted dose curve at most 10% of control; inactive means the rest;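 also: spheroids exposed to compounds for 7 days before readout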
- details: second compound 0.003 µM; first compound 1 µM; spheroids with HUVEC and MSC
Bench note: report the call from 1 (yes) (active), 0 (no) (inactive)

Which outcome was entered for the molecule [2H]c1nc(C)nc([2H])c1-c1cc(NC[C@@H](C)c2cccc3c(C(=O)NC)ccnc23)ncn1 + CC[C@@]1(O)C(=O)OCc2c1cc1n(c2=O)Cc2cc3c(CN(C)C)c(O)ccc3nc2-1 in this test?
0 (no)

Which outcome was entered for the molecule CC(C)n1c(=O)n(C)c2cnc3cc(F)c(-c4ccc(OCCCN5CCCCC5)nc4)cc3c21 + CC[C@@]1(O)C(=O)OCc2c1cc1n(c2=O)Cc2cc3c(CN(C)C)c(O)ccc3nc2-1 in this test?
0 (no)

Which outcome was entered for the molecule COc1cc(C)[nH]c(=O)c1CN1CCc2c(Cl)cc(C(OC)C3COC3)c(Cl)c2C1=O (configuration not stated) + CC[C@@]1(O)C(=O)OCc2c1cc1n(c2=O)Cc2cc3c(CN(C)C)c(O)ccc3nc2-1 in this test?
0 (no)

Which outcome was entered for the molecule CC(C)n1c(=O)n(C)c2cnc3cc(F)c(-c4ccc(OCCCN5CCCCC5)nc4)cc3c21 + COc1cc2c(cc1O)CCNC21CSC2c3c(OC(C)=O)c(C)c4c(c3C(COC1=O)N1C(O)C3Cc5cc(C)c(OC)c(O)c5C(C21)N3C)OCO4 in this test?
1 (yes)

Which outcome was entered for the molecule COc1ccc([C@@H](O)c2cc(-c3ncnc4cc(N5CCOCC5)ccc34)c(F)cc2Cl)nn1 + CC[C@@]1(O)C(=O)OCc2c1cc1n(c2=O)Cc2cc3c(CN(C)C)c(O)ccc3nc2-1 in this test?
0 (no)

Which outcome was entered for the molecule CC1COCCN1c1cc(-c2ccnn2C)c2ccnc(-c3ccn[nH]3)c2n1 (configuration not stated) + COc1cc2c(cc1O)CCNC21CSC2c3c(OC(C)=O)c(C)c4c(c3C(COC1=O)N1C(O)C3Cc5cc(C)c(OC)c(O)c5C(C21)N3C)OCO4 in this test?
1 (yes)

Which outcome was entered for the molecule Cc1cc(C)c(CNC(=O)c2cc(-c3ccc(CN4CCOCC4)cc3)cc3c2cnn3C2CCCC2)c(=O)[nH]1 + CC[C@@]1(O)C(=O)OCc2c1cc1n(c2=O)Cc2cc3c(CN(C)C)c(O)ccc3nc2-1 in this test?
0 (no)

Which outcome was entered for the molecule Cc1cc(C)c(CNC(=O)c2cc(-c3ccc(CN4CCOCC4)cc3)cc3c2cnn3C2CCCC2)c(=O)[nH]1 + COc1cc2c(cc1O)CCNC21CSC2c3c(OC(C)=O)c(C)c4c(c3C(COC1=O)N1C(O)C3Cc5cc(C)c(OC)c(O)c5C(C21)N3C)OCO4 in this test?
1 (yes)

Which outcome was entered for the molecule COc1ccc([C@@H](O)c2cc(-c3ncnc4cc(N5CCOCC5)ccc34)c(F)cc2Cl)nn1 + COc1cc2c(cc1O)CCNC21CSC2c3c(OC(C)=O)c(C)c4c(c3C(COC1=O)N1C(O)C3Cc5cc(C)c(OC)c(O)c5C(C21)N3C)OCO4 in this test?
1 (yes)

Which outcome was entered for the molecule [2H]c1nc(C)nc([2H])c1-c1cc(NC[C@@H](C)c2cccc3c(C(=O)NC)ccnc23)ncn1 + COc1cc2c(cc1O)CCNC21CSC2c3c(OC(C)=O)c(C)c4c(c3C(COC1=O)N1C(O)C3Cc5cc(C)c(OC)c(O)c5C(C21)N3C)OCO4 in this test?
1 (yes)

Which outcome was entered for the molecule COc1cc(C)[nH]c(=O)c1CN1CCc2c(Cl)cc(C(OC)C3COC3)c(Cl)c2C1=O (configuration not stated) + COc1cc2c(cc1O)CCNC21CSC2c3c(OC(C)=O)c(C)c4c(c3C(COC1=O)N1C(O)C3Cc5cc(C)c(OC)c(O)c5C(C21)N3C)OCO4 in this test?
1 (yes)

Which outcome was entered for the molecule CC1COCCN1c1cc(-c2ccnn2C)c2ccnc(-c3ccn[nH]3)c2n1 (configuration not stated) + CC[C@@]1(O)C(=O)OCc2c1cc1n(c2=O)Cc2cc3c(CN(C)C)c(O)ccc3nc2-1 in this test?
0 (no)
